The following variants are listed with their measured protein stability index values.
B1: ZNF449 (parent)
chain: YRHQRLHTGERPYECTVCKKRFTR

Variants of: B1
test.summary: protein stability index of a GFP-peptide fusion (GPS, HEK-293T) (PSI 1-6); higher = more stable;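 note: lentivirally expressed fusions sorted by FACS into six bins by GFP to DsRed ratio, PSI derived from sequencing read proportions per bin multiplied by bin number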
run.parameters: c terminus: a fixed tail appended

# mutant.code, protein stability index
data = [
    ("Y13R", 2.32),
    ("C18V", 3.48),
    ("C15W", 3.07),
    ("T16A", 2.12),
    ("K19D", 1.96),
    ("H3Y", 1.81),
    ("H7E", 2.09),
    ("V17H", 2.64),
    ("C15V", 2.85),
    ("F22I", 2.76),
    ("K19L", 2.2),
    ("T8Q", 2.59),
    ("P12L", 2.22),
    ("G9I", 2.4),
    ("Q4G", 2.34),
    ("Y13M", 2.69),
    ("H7S", 2.05),
    ("T8F", 2.31),
    ("K20C", 2.2),
    ("E14C", 2.57),
    ("C18S", 3.38),
    ("R11W", 2.2),
]
